target: UniProt:C3SIU2; assay: Binding affinity to Escherichia coli metJ in presence of operator DNA complex by filter binding study
Sequence (C3SIU2 whole entry): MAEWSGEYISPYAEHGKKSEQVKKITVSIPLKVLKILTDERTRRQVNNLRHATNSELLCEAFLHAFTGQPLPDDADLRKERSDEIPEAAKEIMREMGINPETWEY
assay_metric: Kd (nM)
Answer with a number only, understood to be in nM.

What the record says about C[S+](CC[C@H](N)C(=O)[O-])C[C@H]1O[C@@H](n2cnc3c(N)ncnc32)[C@H](O)[C@@H]1O (stereo partly specified) : Kd is 4
